Data provenance: ChEMBL document CHEMBL5052856

molecular target: Apolipoprotein L1 (Homo sapiens, UniProt O14791); assay: Inhibition of APOL1 G1 variant in human HEK293-T-REx cells measured by Thallium assay
// IC50 lookup, one value per entry
Readout: IC50

Compound	Assay target	Readout	Obs value
O=C(NC[C@H]1C[C@H](c2c(-c3ccc(F)cc3)[nH]c3c(F)cc(F)cc32)C1)N[C@H]1CC[C@H]1O	Apolipoprotein L1 (Homo sapiens, UniProt O14791)	IC50	> 1000 nM
COC[C@H](C)NC(=O)O[C@H]1C[C@H](c2c(-c3ccc(F)cc3)[nH]c3c(F)cc(F)cc32)C1	Apolipoprotein L1 (Homo sapiens, UniProt O14791)	IC50	> 1000 nM
CN1CC(CNC(=O)[C@H]2C[C@H](c3c(-c4ccc(F)cc4)[nH]c4c(F)cc(F)cc43)C2)CC1=O (some centres undefined)	Apolipoprotein L1 (Homo sapiens, UniProt O14791)	IC50	> 1000 nM
CC[C@@H](CO)NC(=O)[C@H]1C[C@H](c2c(-c3ccc(F)cc3)[nH]c3c(F)cc(F)cc32)C1	Apolipoprotein L1 (Homo sapiens, UniProt O14791)	IC50	0.25 nM

---

target: UniProtKB O14791; experiment: Inhibition of APOL1 G1 variant in human HEK293-T-REx cells measured by Thallium assay
pIC50: −log10 of the molar value.
# pIC50 values compiled below

Compound	pIC50
O=C(NC1(CO)CC(F)(F)C1)C1CC(Cc2c(-c3ccc(F)cc3)[nH]c3c(F)cc(F)cc23)C1 (stereo not drawn)	< 6.00
Cn1ccc(NC(=O)[C@H]2C[C@H](c3c(-c4ccc(F)cc4)[nH]c4c(F)cc(F)cc43)C2)n1	< 6.00
O=C(NCc1cn(CC(F)(F)F)cn1)O[C@H]1C[C@H](c2c(-c3ccc(F)cc3)[nH]c3c(F)cc(F)cc32)C1	< 6.00
CC1(C(=O)NCCO)CC(c2c(-c3ccc(F)cc3)[nH]c3c(F)cc(F)cc23)C1 (stereo not drawn)	9.60
CCNC(=O)N1CC(c2c(-c3ccc(F)cc3)[nH]c3c(F)cc(F)cc23)C1	9.60
O=C([C@H]1C[C@H](c2c(-c3ccc(F)cc3)[nH]c3c(F)cc(F)cc32)C1)N1CCC2(COC2)C1	< 6.00
CN(CC(C)(C)O)C(=O)[C@H]1C[C@H](c2c(-c3ccc(F)cc3)[nH]c3c(F)cc(F)cc32)C1	< 6.00
C[C@@H](O)CNC(=O)N[C@H]1C[C@H](c2c(-c3ccc(F)cc3)[nH]c3c(F)cc(F)cc32)C1	< 6.00
O=C(CNC(=O)[C@H]1C[C@H](c2c(-c3ccc(F)cc3)[nH]c3c(F)cc(F)cc32)C1)NC1CC1	< 6.00
O=C(N[C@@H]1CCC[C@H]1O)[C@H]1C[C@H](c2c(-c3ccc(F)cc3)[nH]c3c(F)cc(F)cc32)C1	< 6.00
COCCNC(=O)[C@H]1C[C@@H](c2c(-c3ccc(F)cc3)[nH]c3c(F)cc(F)cc32)C1	< 6.00
O=C(N[C@@H]1CCNC1=O)O[C@H]1C[C@H](c2c(-c3ccc(F)cc3)[nH]c3c(F)cc(F)cc32)C1	9.60
COCC1(NC(=O)[C@H]2C[C@H](c3c(-c4ccc(F)cc4)[nH]c4c(F)cc(F)cc43)C2)CC1	> 6.60
Cn1ccc(CNC(=O)[C@H]2C[C@H](c3c(-c4ccc(F)cc4)[nH]c4c(F)cc(F)cc43)C2)n1	9.60
CC(C#N)(CO)NC(=O)[C@H]1C[C@H](c2c(-c3ccc(F)cc3)[nH]c3c(F)cc(F)cc32)C1 (stereo partly drawn)	9.60
O=C(NC[C@H]1C[C@H](c2c(-c3ccc(F)cc3)[nH]c3c(F)cc(F)cc32)C1)N[C@H]1CC[C@@H]1O	< 6.00
CC[C@@H](CO)NC(=O)[C@H]1C[C@@H](c2c(-c3ccc(F)cc3)[nH]c3c(F)cc(F)cc32)C1	< 6.00
O=C([C@H]1C[C@H](c2c(-c3ccc(F)cc3)[nH]c3c(F)cc(F)cc32)C1)N1CCCC[C@@H]1CO	< 6.00
Cn1nccc1CNC(=O)[C@H]1C[C@@H](c2c(-c3ccc(F)cc3)[nH]c3c(F)cc(F)cc32)C1	< 6.00
C[C@@H](CO)NC(=O)NC[C@H]1C[C@H](c2c(-c3ccc(F)cc3)[nH]c3c(F)cc(F)cc32)C1	< 6.00
O=C(NCCn1cccc1)[C@H]1C[C@H](c2c(-c3ccc(F)cc3)[nH]c3c(F)cc(F)cc32)C1	< 6.00
O=C(NCc1cnco1)O[C@H]1C[C@H](c2c(-c3ccc(F)cc3)[nH]c3c(F)cc(F)cc32)C1	9.60
O=C([C@H]1C[C@H](c2c(-c3ccc(F)cc3)[nH]c3c(F)cc(F)cc32)C1)N(CCO)C1CC1	> 6.60
C[C@@H](CO)NC(=O)O[C@H]1C[C@H](c2c(-c3ccc(F)cc3)[nH]c3c(F)cc(F)cc32)C1	9.60
NC(=O)[C@H](CO)NC(=O)[C@H]1C[C@H](c2c(-c3ccc(F)cc3)[nH]c3c(F)cc(F)cc32)C1	9.60
O=C(N[C@@H]1CC[C@H](O)C1)[C@H]1C[C@H](c2c(-c3ccc(F)cc3)[nH]c3c(F)cc(F)cc32)C1	< 6.00
CC(NC(=O)[C@H]1C[C@H](c2c(-c3ccc(F)cc3)[nH]c3c(F)cc(F)cc32)C1)c1ccn(C)n1 (stereo partly drawn)	9.60
O=C(NCC1CCCO1)C1CC(Cc2c(-c3ccc(F)cc3)[nH]c3c(F)cc(F)cc23)C1 (stereo not drawn)	< 6.00
CC(CO)N1CCN(C(=O)[C@H]2C[C@H](c3c(-c4ccc(F)cc4)[nH]c4c(F)cc(F)cc43)C2)CC1 (stereo partly drawn)	< 6.00
Cn1cnc(CNC(=O)C2CC(Cc3c(-c4ccc(F)cc4)[nH]c4c(F)cc(F)cc34)C2)c1 (stereo not drawn)	< 6.00
O=C(NC(CO)CF)[C@H]1C[C@H](c2c(-c3ccc(F)cc3)[nH]c3c(F)cc(F)cc32)C1 (stereo partly drawn)	> 6.60
O=C(NCC1COC1)[C@H]1C[C@@H](c2c(-c3ccc(F)cc3)[nH]c3c(F)cc(F)cc32)C1	< 6.00
O=C1NCC[C@@H]1NC(=O)[C@H]1C[C@H](c2c(-c3ccc(F)cc3)[nH]c3c(F)cc(F)cc32)C1	9.60
